Assayed target: human GLP-1 receptor (human, UniProt P43220 24-463)
Test method notes: cell-based or functional assay
*1 amine or outer side, *2 acyl side, *3 side chain or, on linkers, in order; H or OH if unused. Where no end group is shown, it is not given here. Side-chain parts run from the residue outwards. [ ]: non-standard residue; d: D form. The star is where a group is joined. C20 diacid = O=C(O)CCCCCCCCCCCCCCCCCCC(=O)*; C18 diacid = O=C(O)CCCCCCCCCCCCCCCCC(=O)*; γGlu = O=C(O)[C@H](CCC(=O)[*:2])N[*:1]; Aib = CC(C)(N)C(=O)O
Measurement name: EC50, CreLuc reporter, 100% hP (nM)
Return type: number; implicit unit nM.

[
  {
    "Binder": "Y[Aib]EGTFTSDLSI[Aib]LEKQAQ[Aib]AFVRHLINK([γGlu-γGlu-γGlu-γGlu-γGlu-γGlu-C20 diacid])[Aib]TRQRY-NH2 [Compound 51]",
    "Value units": "nM",
    "EC50, CreLuc reporter, 100% hP": 16.3
  }
]

Query :: Quick check: EC50, CreLuc reporter, 100% hP of Y[Aib]EGTFTSDYSI[Aib]LEEEAQ[Aib]AFVRHLINK([γGlu-γGlu-γGlu-γGlu-C18 diacid])[Aib]TRQRY-NH2 [Compound 25] ?
Result :: 2

All figures here come from patent US20250382344A1.
